- TEST TARGET: T1, human TREM2 (human, UniProt Q9NZC2 19-174, limits assumed)
- T1 construct: also called triggering receptor expressed on myeloid cells 2
- T1 sequence: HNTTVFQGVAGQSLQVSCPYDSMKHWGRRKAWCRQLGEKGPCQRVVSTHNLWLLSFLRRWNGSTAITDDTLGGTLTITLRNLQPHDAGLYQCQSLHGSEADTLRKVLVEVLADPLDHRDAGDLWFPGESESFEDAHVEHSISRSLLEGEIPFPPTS
- ASSAY INFO: 2nd screen, 2 nM
ENDPOINT: Binding Signal

BINDER	Binding Signal
V39 (antibody, V domains shown, also called 6E7 variant V39) VH: EVQLVQSGAEVKKPGESLKISCKGSGYSFGSYWIAWVRQMPGKGLEWMGIIYPGDSDTRYNPSFQGQVTISADKSISTAYLQWSSLKASDTAMYFCARGRTFYYDSSDYFDYWGQGTLVTVSS VL: DIQMTQSPSSVSASVGDRVTITCRASQGISSWLAWYQQKPGKAPKLLIYAASSLVNGVPSRFSGSGSGTDFTLTISSLQPEDFATYFCQQADSSPRTFGQGTKLEIK	5.11 fold over 6E7 parental antibody

Short answer for V28 (antibody, V domains shown, also called 6E7 variant V28) VH: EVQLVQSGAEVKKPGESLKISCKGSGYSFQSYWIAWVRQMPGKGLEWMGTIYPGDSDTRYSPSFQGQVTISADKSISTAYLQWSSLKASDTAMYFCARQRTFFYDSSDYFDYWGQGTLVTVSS VL: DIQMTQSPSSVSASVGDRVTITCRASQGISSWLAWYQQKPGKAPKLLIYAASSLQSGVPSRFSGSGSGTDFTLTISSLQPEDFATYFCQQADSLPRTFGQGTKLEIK : Binding Signal was 2.63 fold over 6E7 parental antibody

Reference source for all entries: patent US20250326839A1
